- assayed.target: HLA-B*15:01
- method.description: IEDB peptide-MHC binding, purified MHC/direct/fluorescence; filed as Kd, often an IC50 or EC50 that approximates it; bounds were set here for any values at or beyond the usual limits of such assays
- condition.context: source organism: Vibrio parahaemolyticus
pKd: −log10 of the molar value.

| seq.string | pKd |
| --- | --- |
| IRSCWRYRK | ≤ 4.70 |

====

- assayed.target: HLA-A*69:01
- method.description: IEDB peptide-MHC binding, purified MHC/direct/fluorescence; filed as Kd, often an IC50 or EC50 that approximates it; bounds were set here for any values at or beyond the usual limits of such assays
- condition.context: source organism: Francisella tularensis subsp. holarctica LVS
pKd: −log10 of the molar value.
value.type: pKd

| seq.string | assayed.target | value.type | measured.value |
| --- | --- | --- | --- |
| FLYDISISL | HLA-A*69:01 | pKd | 7.80 |

====

- assayed.target: HLA-B*54:01
- method.description: IEDB peptide-MHC binding, purified MHC/competitive/radioactivity; filed as Kd, often an IC50 or EC50 that approximates it; bounds were set here for any values at or beyond the usual limits of such assays
- condition.context: source organism: SARS coronavirus Tor2
Entries annotated with measured Kd

| seq.string | Kd, nM |
| --- | --- |
| APAICHEGKA | 1470 |
| IPTNFSISI | 49.9 |

====

- assayed.target: HLA-B*40:01
- method.description: IEDB peptide-MHC binding, purified MHC/competitive/fluorescence; filed as Kd, often an IC50 or EC50 that approximates it; bounds were set here for any values at or beyond the usual limits of such assays
- condition.context: source organism: Mycobacterium tuberculosis variant bovis BCG str. Pasteur 1173P2

| seq.string | Kd |
| --- | --- |
| KPIPHRTVL | ≥ 20 µM |

====

- assayed.target: HLA-A*02:03
- method.description: IEDB peptide-MHC binding, purified MHC/direct/fluorescence; filed as Kd, often an IC50 or EC50 that approximates it; bounds were set here for any values at or beyond the usual limits of such assays
- condition.context: source organism: Orthohantavirus negraense
pKd: −log10 of the molar value.

| seq.string | pKd |
| --- | --- |
| SLLFREVWK | ≤ 4.70 |

====

- assayed.target: HLA-A*26:01
- method.description: IEDB peptide-MHC binding, purified MHC/direct/fluorescence; filed as Kd, often an IC50 or EC50 that approximates it; bounds were set here for any values at or beyond the usual limits of such assays
- condition.context: source organism: Variola virus
value.type: Kd

| seq.string | measured.value |
| --- | --- |
| FENDIDEIL | ≥ 20 µM |
| EYKKFIATF | ≥ 20 µM |

====

- assayed.target: HLA-A*01:01
- method.description: IEDB peptide-MHC binding, purified MHC/direct/fluorescence; filed as Kd, often an IC50 or EC50 that approximates it; bounds were set here for any values at or beyond the usual limits of such assays
- condition.context: source organism: Vibrio cholerae
Entries annotated with measured Kd

| seq.string | Kd |
| --- | --- |
| GKFFAQAFL | ≥ 20 µM |
| SVMPAWQEK | ≥ 20 µM |

====

- assayed.target: HLA-A*68:02
- method.description: IEDB peptide-MHC binding, purified MHC/competitive/radioactivity; filed as Kd, often an IC50 or EC50 that approximates it; bounds were set here for any values at or beyond the usual limits of such assays
- condition.context: source organism: Vaccinia virus WR
pKd: −log10 of the molar value.

| seq.string | pKd |
| --- | --- |
| LLTACTIFYI | 6.64 |
| EVVMAYVGIK | 5.59 |

====

- assayed.target: HLA-B*39:01
- method.description: IEDB peptide-MHC binding, purified MHC/direct/fluorescence; filed as Kd, often an IC50 or EC50 that approximates it; bounds were set here for any values at or beyond the usual limits of such assays
- condition.context: source organism: Vibrio vulnificus YJ016

| seq.string | assayed.target | Kd |
| --- | --- | --- |
| KRFYQTVGF | HLA-B*39:01 | ≥ 20 µM |

====

- assayed.target: HLA-A*24:02
- method.description: IEDB peptide-MHC binding, purified MHC/competitive/fluorescence; filed as Kd, often an IC50 or EC50 that approximates it; bounds were set here for any values at or beyond the usual limits of such assays
- condition.context: source organism: Campylobacter jejuni subsp. jejuni NCTC 11168 = ATCC 700819
pKd: −log10 of the molar value.

| seq.string | assayed.target | pKd |
| --- | --- | --- |
| VMPLLVWLF | HLA-A*24:02 | 8.54 |

====

- assayed.target: HLA-A*01:01
- method.description: IEDB peptide-MHC binding, purified MHC/direct/fluorescence; filed as Kd, often an IC50 or EC50 that approximates it; bounds were set here for any values at or beyond the usual limits of such assays
- condition.context: source organism: Giardia intestinalis
pKd: −log10 of the molar value.

| seq.string | pKd |
| --- | --- |
| DYAMHGTVF | ≤ 4.70 |

====

- assayed.target: HLA-B*27:05
- method.description: IEDB peptide-MHC binding, purified MHC/direct/fluorescence; filed as Kd, often an IC50 or EC50 that approximates it; bounds were set here for any values at or beyond the usual limits of such assays
- condition.context: source organism: SARS-CoV1
pKd: −log10 of the molar value.

| seq.string | pKd |
| --- | --- |
| ATFSVPMEK | 4.72 |

====

- assayed.target: HLA-A*03:01
- method.description: IEDB peptide-MHC binding, purified MHC/competitive/fluorescence; filed as Kd, often an IC50 or EC50 that approximates it; bounds were set here for any values at or beyond the usual limits of such assays
- condition.context: source organism: Homo sapiens
pKd: −log10 of the molar value.
value.type: pKd

| seq.string | measured.value |
| --- | --- |
| VVPSYIPLV | ≤ 4.70 |

====

- assayed.target: HLA-B*51:01
- method.description: IEDB peptide-MHC binding, purified MHC/competitive/radioactivity; filed as Kd, often an IC50 or EC50 that approximates it; bounds were set here for any values at or beyond the usual limits of such assays
- condition.context: source organism: Dengue virus 1 Nauru/West Pac/1974
pKd: −log10 of the molar value.

| seq.string | pKd |
| --- | --- |
| LYAVATTII | 5.86 |

====

Entries annotated with measured Kd
- assayed.target: HLA-A*02:01
- method.description: IEDB peptide-MHC binding, purified MHC/direct/fluorescence; filed as Kd, often an IC50 or EC50 that approximates it; bounds were set here for any values at or beyond the usual limits of such assays
- condition.context: source organism: Homo sapiens

| seq.string | Kd |
| --- | --- |
| HLLCQAFSV | 0.0002 µM |
| YLDDPDLKY | 3.36 µM |

====

- assayed.target: HLA-A*29:02
- method.description: IEDB peptide-MHC binding, purified MHC/direct/fluorescence; filed as Kd, often an IC50 or EC50 that approximates it; bounds were set here for any values at or beyond the usual limits of such assays
- condition.context: source organism: Lyssavirus rabies

| seq.string | Kd |
| --- | --- |
| YLDNVGVHI | ≥ 20 µM |

====

- assayed.target: HLA-B*07:02
- method.description: IEDB peptide-MHC binding, purified MHC/direct/fluorescence; filed as Kd, often an IC50 or EC50 that approximates it; bounds were set here for any values at or beyond the usual limits of such assays
- condition.context: source organism: Brucella abortus

| seq.string | Kd |
| --- | --- |
| KLYERNTAF | ≥ 20 µM |
| GRKTPLLCF | ≥ 20 µM |

====

- assayed.target: HLA-B*15:17
- method.description: IEDB peptide-MHC binding, purified MHC/direct/fluorescence; filed as Kd, often an IC50 or EC50 that approximates it; bounds were set here for any values at or beyond the usual limits of such assays
- condition.context: source organism: Influenza A virus (A/swine/Italy/809/1989(H3N2))
pKd: −log10 of the molar value.
value.type: pKd

| seq.string | measured.value |
| --- | --- |
| EEIRRIWRQ | ≤ 4.70 |

====

- assayed.target: HLA-B*73:01
- method.description: IEDB peptide-MHC binding, purified MHC/competitive/fluorescence; filed as Kd, often an IC50 or EC50 that approximates it; bounds were set here for any values at or beyond the usual limits of such assays
- condition.context: source organism: Vibrio cholerae

| seq.string | assayed.target | Kd |
| --- | --- | --- |
| GKFFAQAFL | HLA-B*73:01 | ≥ 20 µM |

====

- assayed.target: HLA-B*46:01
- method.description: IEDB peptide-MHC binding, purified MHC/direct/fluorescence; filed as Kd, often an IC50 or EC50 that approximates it; bounds were set here for any values at or beyond the usual limits of such assays
- condition.context: source organism: Sudan virus - Boniface, Sudan,1976

| seq.string | Kd |
| --- | --- |
| TMMRHRREL | ≥ 20 µM |
